- assay-method-text: Phase 1 multiple escalating dose study, QD intravenous infusion for 14 days, safety and pharmacokinetics
- Type: in vivo, human
- run-conditions: human, whole blood; 400 μg QD IV infusion for 14 days, blood; harmonic mean ± pseudo-standard deviation; read-out: t½ (converted)
result-type: half-life

half-life reported for this compound `CO[C@H]1C[C@@H]2CC[C@@H](C)[C@@](O)(O2)C(=O)C(=O)N2CCCC[C@H]2C(=O)O[C@H]([C@H](C)C[C@@H]2CC[C@H](n3cnnn3)[C@H](OC)C2)CC(=O)[C@H](C)/C=C(\C)[C@@H](O)[C@@H](OC)C(=O)[C@H](C)C[C@H](C)/C=C/C=C/C=C/1C` : 31 h

---

- assay-method-text: Phase 1 multiple escalating dose study, QD intravenous infusion for 14 days, safety and pharmacokinetics
- Assay type: in vivo, human
- run-conditions: human, whole blood; 400 μg QD IV infusion for 14 days, blood, secondary predicted parameter
result-type: Cmax (ng/mL)
Answer format: numeric, ng/mL implied, no suffix.

Cmax reported for this compound `CO[C@H]1C[C@@H]2CC[C@@H](C)[C@@](O)(O2)C(=O)C(=O)N2CCCC[C@H]2C(=O)O[C@H]([C@H](C)C[C@@H]2CC[C@H](n3cnnn3)[C@H](OC)C2)CC(=O)[C@H](C)/C=C(\C)[C@@H](O)[C@@H](OC)C(=O)[C@H](C)C[C@H](C)/C=C/C=C/C=C/1C` : 21.4

---

- assay-method-text: Phase 1 multiple escalating dose study, QD intravenous infusion for 14 days, safety and pharmacokinetics
- Assay type: in vivo, human
- run-conditions: human, whole blood; 200 μg QD IV infusion for 14 days, blood, secondary predicted parameter; read-out: CL (converted)
result-type: clearance (mL/min)
Answer format: numeric, mL/min implied, no suffix.

clearance reported for this compound `CO[C@H]1C[C@@H]2CC[C@@H](C)[C@@](O)(O2)C(=O)C(=O)N2CCCC[C@H]2C(=O)O[C@H]([C@H](C)C[C@@H]2CC[C@H](n3cnnn3)[C@H](OC)C2)CC(=O)[C@H](C)/C=C(\C)[C@@H](O)[C@@H](OC)C(=O)[C@H](C)C[C@H](C)/C=C/C=C/C=C/1C` : 70

---

- assay-method-text: Phase 1 multiple escalating dose study, QD intravenous infusion for 14 days, safety and pharmacokinetics
- Assay type: in vivo, human
- run-conditions: human, whole blood; 800 μg QD IV infusion for 14 days, blood; harmonic mean ± pseudo-standard deviation; read-out: t½ (converted)
result-type: half-life
Report the figure along with its unit, number first.

half-life reported for this compound `CO[C@H]1C[C@@H]2CC[C@@H](C)[C@@](O)(O2)C(=O)C(=O)N2CCCC[C@H]2C(=O)O[C@H]([C@H](C)C[C@@H]2CC[C@H](n3cnnn3)[C@H](OC)C2)CC(=O)[C@H](C)/C=C(\C)[C@@H](O)[C@@H](OC)C(=O)[C@H](C)C[C@H](C)/C=C/C=C/C=C/1C` : 1800 min
